Test system: HCT-116
protocol summary: NCI tumour cell line growth inhibition, 48 h
Calls of active or inactive are those of the source. Rule as the data show it: active = GI50 up to about 1.1 µM and inactive = higher.
Outcomes: active, inactive

molecule | assayed target | classification
CC(C)C[C@H](NC(=O)[C@H](Cc1cccc2ccccc12)NC(=O)N1CCOCC1)B(O)O | HCT-116 | active
CC(C)[Si](OC12CCC(CC1O)CC2CO)(C(C)C)C(C)C (stereo not drawn) | HCT-116 | inactive
O=C1N[C@H]2c3c(Cl)sc(Cl)c3[C@@H](O)[C@H]2O1 | HCT-116 | inactive

====

System: NCI/ADR-RES
protocol summary: NCI tumour cell line growth inhibition, 48 h
Calls of active or inactive are those of the source. Rule as the data show it: active = GI50 up to about 1.1 µM and inactive = higher.
Documented GI50 across a set of compounds

smiles text | GI50
CCCCCCCCCC(=O)N[C@@H](c1ccco1)[C@@H](O)C(=O)O[C@H]1C[C@@]2(O)[C@@H](OC(=O)c3ccccc3)[C@@H]3[C@]4(OC(C)=O)CO[C@@H]4C[C@H](O)[C@@]3(C)C(=O)[C@H](OC(C)=O)C(=C1C)C2(C)C | 4.57 µM (inactive)
N#Cc1nc(-c2ccc(-c3nc(C#N)c(N)o3)cc2)oc1N | > 10 µM (inactive)
Clc1ccc(Cc2nc3ccccc3nc2-c2cccc(Br)c2)cc1 | 3.08 µM (inactive)
